Origin of the recorded values: patent US8791267B2

Below is a list of entries, each paired with its recorded IC50 value.
biological target: PDE4 (Homo sapiens, UniProt Q08499); assay: In-vitro assay for PDE4 enzymes, real-time enzyme-coupled spectrophotometric assay (Table 9); format: biochemical
Sequence (Q08499 whole entry): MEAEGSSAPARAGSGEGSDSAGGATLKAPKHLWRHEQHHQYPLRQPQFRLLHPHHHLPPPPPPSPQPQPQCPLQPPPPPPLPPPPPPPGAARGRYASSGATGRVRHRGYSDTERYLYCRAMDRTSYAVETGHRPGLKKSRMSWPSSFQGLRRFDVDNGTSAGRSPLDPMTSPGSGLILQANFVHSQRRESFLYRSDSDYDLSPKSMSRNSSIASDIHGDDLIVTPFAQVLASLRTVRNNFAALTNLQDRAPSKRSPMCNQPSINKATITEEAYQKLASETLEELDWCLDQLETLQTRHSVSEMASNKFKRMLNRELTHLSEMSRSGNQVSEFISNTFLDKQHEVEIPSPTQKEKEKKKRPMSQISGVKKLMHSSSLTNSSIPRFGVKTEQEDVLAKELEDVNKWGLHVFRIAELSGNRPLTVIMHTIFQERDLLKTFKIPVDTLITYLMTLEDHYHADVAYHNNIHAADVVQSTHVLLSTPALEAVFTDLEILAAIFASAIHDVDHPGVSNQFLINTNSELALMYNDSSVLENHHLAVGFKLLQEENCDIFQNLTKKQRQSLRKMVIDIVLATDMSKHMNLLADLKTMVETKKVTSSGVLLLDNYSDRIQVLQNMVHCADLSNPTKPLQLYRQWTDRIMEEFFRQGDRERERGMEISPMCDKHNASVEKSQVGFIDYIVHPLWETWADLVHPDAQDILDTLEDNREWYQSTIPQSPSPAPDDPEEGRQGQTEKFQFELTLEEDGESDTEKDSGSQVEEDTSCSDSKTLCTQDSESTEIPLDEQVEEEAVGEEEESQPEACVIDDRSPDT

SMILES RECORD: COc1ccc(Cc2ccc(CNC(=O)Oc3ccccc3)nc2)c(F)c1-c1cccc(Cl)c1
IC50: < 5 µM

Query :: Value wanted: IC50 (PDE4 (Homo sapiens, UniProt Q08499)) of entry "NC(=O)Oc1ccc(Cc2ccc(=O)[nH]n2)cc1-c1cccc([N+](=O)[O-])c1"
Result :: 5 to 20 µM

Query :: Value wanted: IC50 (PDE4 (Homo sapiens, UniProt Q08499)) of entry "COc1ccc(Cc2ccc(OC(N)=O)cc2)c(F)c1-c1cccc(Cl)c1"
Result :: < 5 µM

Query :: Value wanted: IC50 (PDE4 (Homo sapiens, UniProt Q08499)) of entry "COc1ccc(Cc2cccc(OC(N)=O)c2)c(F)c1-c1cccc(Cl)c1"
Result :: < 5 µM

Query :: Value wanted: IC50 (PDE4 (Homo sapiens, UniProt Q08499)) of entry "COc1ccc(Cc2cnc(NC(=O)NCCCl)nc2)c(F)c1-c1cccc(C(C)=O)c1"
Result :: < 5 µM

Query :: Value wanted: IC50 (PDE4 (Homo sapiens, UniProt Q08499)) of entry "COc1ccc(Cc2ccc(CNC(=O)Oc3ccccc3)nc2)cc1-c1cccc(Cl)c1"
Result :: < 5 µM

----------
target: UniProtKB Q07343; assay: In-vitro assay for PDE4 enzymes, real-time enzyme-coupled spectrophotometric assay, PDE4B Activity (Table 10); assay type: biochemical; settings: human PDE4B (hPDE4B), enzyme-coupled spectrophotometric assay; read-out: PDE4B Activity, hPDE4B
Sequence (Q07343 whole entry): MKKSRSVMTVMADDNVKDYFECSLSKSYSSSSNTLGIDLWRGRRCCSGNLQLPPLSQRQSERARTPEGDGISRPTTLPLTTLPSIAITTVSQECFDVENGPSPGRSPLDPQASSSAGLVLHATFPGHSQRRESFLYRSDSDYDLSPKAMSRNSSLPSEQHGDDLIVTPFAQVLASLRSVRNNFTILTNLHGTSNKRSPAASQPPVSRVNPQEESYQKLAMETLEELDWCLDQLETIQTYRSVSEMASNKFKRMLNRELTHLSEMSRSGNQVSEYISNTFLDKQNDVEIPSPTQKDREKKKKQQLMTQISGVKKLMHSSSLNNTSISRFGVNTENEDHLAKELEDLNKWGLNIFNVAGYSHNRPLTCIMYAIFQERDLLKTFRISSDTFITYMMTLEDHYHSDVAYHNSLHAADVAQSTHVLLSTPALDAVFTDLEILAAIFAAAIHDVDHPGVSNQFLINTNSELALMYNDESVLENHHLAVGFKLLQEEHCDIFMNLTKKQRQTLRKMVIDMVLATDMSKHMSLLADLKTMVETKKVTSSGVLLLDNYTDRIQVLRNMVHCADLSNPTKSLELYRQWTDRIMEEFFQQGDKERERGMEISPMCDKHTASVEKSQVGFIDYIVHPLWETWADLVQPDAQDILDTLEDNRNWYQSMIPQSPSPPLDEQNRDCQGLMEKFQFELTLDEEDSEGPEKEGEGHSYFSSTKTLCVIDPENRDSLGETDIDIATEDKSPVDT
pIC50: −log10 of the molar value.
MEASURED ENDPOINT: pIC50

SMILES RECORD: COc1ccc(Cc2ccc(NC(N)=O)cc2)nc1-c1cccc(Cl)c1
TESTED TARGET: UniProtKB Q07343
pIC50: > 5.30
//
SMILES RECORD: COc1ccc(Cc2c(C)n[nH]c2C)cc1-c1cccc([N+](=O)[O-])c1
TESTED TARGET: UniProtKB Q07343
pIC50: > 5.30
//
SMILES RECORD: COc1ccc(Cc2ccc(C(N)=O)nc2)c(F)c1-c1cccc(Cl)c1
TESTED TARGET: UniProtKB Q07343
pIC50: > 5.30
//
SMILES RECORD: COc1ccc(Cc2ccc(CO)cc2)c(O)c1-c1cccc([N+](=O)[O-])c1
TESTED TARGET: UniProtKB Q07343
pIC50: > 5.30
//
SMILES RECORD: COc1ccc(Cn2cc(C(N)=O)ccc2=O)cc1-c1cccc([N+](=O)[O-])c1
TESTED TARGET: UniProtKB Q07343
pIC50: 4.70 to 5.30
//
SMILES RECORD: COc1ccc(Cc2ccc(N)nc2)cc1-c1cccc([N+](=O)[O-])c1
TESTED TARGET: UniProtKB Q07343
pIC50: > 5.30

Query :: Value wanted: pIC50 (UniProtKB Q07343) of entry "COc1ccc(Cc2cccnc2Cl)c(O)c1-c1cccc([N+](=O)[O-])c1"
Result :: > 5.30

Query :: Value wanted: pIC50 (UniProtKB Q07343) of entry "COc1ccc(CN2CCC[C@H]2CO)cc1-c1cccc([N+](=O)[O-])c1"
Result :: 4.40 to 4.68

Query :: Value wanted: pIC50 (UniProtKB Q07343) of entry "COc1ccc(C2(c3ccc(F)cc3)CCN(C)CC2)cc1-c1cccc(Cl)c1"
Result :: 4.40 to 4.68
